Origin of measurements: PubChem BioAssay AID588780

Listed next: entries and their corresponding IC50.
system: H9c2 cardiomyocytes, 2-deoxyglucose stress, ATP luminescence, 2 h; experiment: H9c2 cell survival under 2-deoxyglucose stress – uHTS hits, dose response (AID 588780)
The source made the active and inactive calls.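 Rule for the calls: active = compounds whose fitted half-maximal concentration in the cell-protection dose series is at or below a set limit; inactive = the rest.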

The examples below pair each entry with its known result.
Substance smiles | IC50
NS(=O)(=O)c1ccc(CCNc2ccn3nc(-c4ccc(OCCN5CCOCC5)cc4)cc3n2)cc1 | 37.3 µM (inactive)
O=C(CN1CCN(S(=O)(=O)c2cc(Cl)ccc2Cl)CC1)c1ccc(O)c(O)c1 | > 79 µM (inactive)
Nc1ccc(-c2n[nH]c(=O)c3ccccc23)cc1N | > 79 µM (inactive)
COc1cccc(NC(=O)CN(C)C(=O)CCCc2nc3ccccc3c(=O)[nH]2)c1 | > 79 µM (inactive)
COC(=O)c1cc2ccc(OC)cc2c2cc(OC)c(OC)cc12 | > 79 µM (inactive)
Cc1ccc2[nH]c(=O)c(CN(CCCN3CCOCC3)C(=O)Nc3ccc(Cl)cc3)cc2c1 | > 79 µM (inactive)
CCOC(=O)C1=C(C)Nc2ccccc2N=C1NC(=O)c1oc2ccccc2c1COC | > 79 µM (inactive)
Cc1nc(N2CCN(S(=O)(=O)c3cccc4nonc34)CC2)c2c3c(sc2n1)CCCC3 | > 79 µM (inactive)

Prompt line: Supply reported IC50 belonging to this compound: `COc1cc(C(=O)Nc2nc(OC)c(-c3ccccc3)c(OC)n2)cc(OC)c1OC`
Response line: > 79 µM (inactive)

Prompt line: Supply reported IC50 belonging to this compound: `CCn1c(O)c(/C=N/N=C2CCCC2)c2ccc(C3=NNC(=O)CC3)cc21`
Response line: > 79 µM (inactive)
